# Test system: S180 ascites
# experimental-details: Anti-Tumor Screening; S180 ascites in mice (% increase in life span, survivors)
# Assay type: in vivo, female CFW Swiss mice
# experimental-conditions: 100 mg/kg
metric-name: Survivors

**Q:** Recorded Survivors for CC(C(=O)[O-])C(=O)[O-].CC(C(=O)[O-])C(=O)[O-].[K+].[K+].[Pd+2] with S180 ascites, please?
**A:** 2 of 6

**Q:** Likewise for O=C([O-])C(O)C(=O)[O-].O=C([O-])C(O)C(=O)[O-].[K+].[K+].[Pd+2] [Example 4, Potassium Bis(Tartronato)palladate(II)] ?
**A:** 3 of 6

**Q:** Likewise for O=C([O-])c1ccccc1C(=O)[O-].O=C([O-])c1ccccc1C(=O)[O-].[K+].[K+].[Pd+2] [Example 5, Potassium Bis(phthalato)palladate(II)] ?
**A:** 1 of 6

**Q:** Likewise for O=C([O-])C(=O)[O-].O=C([O-])C(=O)[O-].[K+].[K+].[Pd+2] [K2 [Pd(Oxalate)2], reference compound] ?
**A:** 1 of 6
